Each entry below carries its recorded IC50.
Target: progesterone receptor ligand binding domain (GST-tagged PR LBD) (Homo sapiens, UniProt P06401)
Sequence (P06401 679-913 limits assumed): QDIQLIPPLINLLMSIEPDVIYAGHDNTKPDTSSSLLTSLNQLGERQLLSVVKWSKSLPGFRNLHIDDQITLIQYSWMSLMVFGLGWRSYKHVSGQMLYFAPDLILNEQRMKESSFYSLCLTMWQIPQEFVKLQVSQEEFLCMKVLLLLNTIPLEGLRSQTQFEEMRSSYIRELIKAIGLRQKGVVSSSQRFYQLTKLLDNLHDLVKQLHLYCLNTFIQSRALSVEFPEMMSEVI

These solved cases illustrate the format of a correct answer.
sample-smiles	recorded-metric	result
Cn1cc(-c2cc(C(C)(C)O)ccc2Oc2ccc(F)c(OCCC3CC4(C3)CN(c3ncc(C(=O)N[C@H]5C(C)(C)[C@H](Oc6ccc(C#N)c(Cl)c6)C5(C)C)cn3)C4)c2F)c2cc[nH]c2c1=O	IC50	< 0.05 µM
Cn1cc(-c2cc(C(C)(C)O)ccc2Oc2cccc(OCCN3CC4(C3)CN(c3ncc(C(=O)N[C@H]5C(C)(C)[C@H](Oc6ccc(C#N)c(Cl)c6)C5(C)C)cn3)C4)c2F)c2cc[nH]c2c1=O	IC50	0.05 to 0.5 µM
CCS(=O)(=O)c1ccc(Oc2cccc(CCCOC3CC4(C3)CN(c3ccc(C(=O)N[C@H]5C(C)(C)[C@H](Oc6ccc(C#N)c(Cl)c6)C5(C)C)cn3)C4)c2F)c(-c2cn(C)c(=O)c3[nH]ccc23)c1	IC50	> 2.5 µM
Cn1cc(-c2cc(C(C)(C)O)ccc2Oc2ccc(N3CC(OC4CCN(c5ncc(C(=O)N[C@H]6C(C)(C)[C@H](Oc7ccc(C#N)c(Cl)c7)C6(C)C)cn5)CC4)C3)cc2)c2cc[nH]c2c1=O	IC50	0.05 to 0.5 µM

Q: Param item = Cn1cc(-c2cc(C(C)(C)O)ccc2Oc2ccc(OCCN3CCN(c4ncc(C(=O)N[C@H]5C(C)(C)[C@H](Oc6ccc(C#N)c(Cl)c6)C5(C)C)cn4)CC3)cc2)c2cc[nH]c2c1=O ; retrieve measured IC50.
A: 0.05 to 0.5 µM
